Test: small-molecule microarray binders of probe aWnt5a, primary screen, biochemical, biotinylated probe, 635/667 nm fluorescence (AID 1113);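 further: score merges 667 nm fluorescence intensity with signal-to-noise per printed feature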
Details: higher = more signal
The recorded composite z-score of each item maps onto one of these classes: class A = under -0.05, class B = from -0.05 up to 0.01, class C = 0.01 and over

# input Which composite z-score band matches [N-]=[N+]=NCc1ccccc1[C@@H]1OC(c2ccc(OCCCO)cc2)=N[C@]1(Cc1ccccc1)C(=O)NCCN1CCOCC1 ?
# output class C

# input Class label required: O=C1OCC=C[C@H]2OC34C=CCN(c5ccc6ccccc6c5)C(=O)[C@H]3N(CCCCCO)C(=O)[C@@H]4[C@@H]12 (stereo partly drawn)
# output class A

# input Assign a bin to COCCOC(=O)N1C(=O)[C@@]2(c3ccccc31)[C@H](c1ccccc1OCCO)N1[C@H](c3ccccc3)[C@H](c3ccccc3)OC(=O)[C@H]1[C@@H]2C(=O)N1CCCCCCC1
# output class C

# input Exercise: read the entry C=C(CCCC)C(=O)CC[C@@H](OC(=O)c1cccnc1)c1ccc(OCCO)cc1 and state which class it falls under.
# output class B

# input State the class of the compound shown: COc1ccc([Si](C)(C)[C@H]2[C@H](CC(=O)N3Cc4ccccc4C[C@H]3CO)O[C@@]3(C(=O)N(Cc4ccc(N5C(=O)c6cccc7cccc5c67)cc4)c4ccccc43)[C@@H]2C)cc1
# output class A

# input Assign a category based on measured composite z-score for Cc1cccc([C@H]2C[C@H]3C(I)=C[C@@H]2C(=O)[C@]32CO2)c1 and give only the class name.
# output class A

# input Could you tell me which band CCOC(=O)C[C@H]1[C@H](OC(=O)c2ccccc2-c2ccccc2)[C@@H](NC(=O)c2ccc3ccccc3n2)c2cc(OCCCO)ccc2N1C(=O)c1ccccc1 belongs to?
# output class A

# input Lab note: sort CC(C)CCC[C@@H](C)[C@H]1CC[C@@]2(C)C3=C(CC[C@]12C)[C@@]1(C)CC[C@H](OC(=O)c2ccccc2)C(C)(C)C1CC3 (stereo partly drawn) into the matching composite z-score band.
# output class A

# input Lab log: COc1ccc(NC(=O)O[C@H]2[C@@H]3OC(=O)[C@H](Cc4cccc(Br)c4)C/C=C/C[C@@H](Cc4cccc(Br)c4)C(=O)O[C@H]3[C@@H](OC)O[C@@H]2CO)cc1 — assign composite z-score category
# output class B

# input Input C=C(COC)/C(=C/C[C@@H](OC(=O)c1ccncc1)c1ccccc1OCCO)c1cc(C(=O)OC)ccc1OC ; output its category
# output class A

# input Exercise: read the entry COCCOC(=O)N1C(=O)[C@@]2(c3ccccc31)[C@H](c1ccc(OCCO)cc1)N1[C@H](c3ccccc3)[C@H](c3ccccc3)OC(=O)[C@H]1[C@@H]2C(=O)N1CCCCCCC1 and state which class it falls under.
# output class C

# input Could you place C=CCN1C(=O)[C@]2(O[C@H](CCO)[C@@H]([Si](C)(C)c3ccc(OC)cc3)[C@@H]2C)c2cc(N3C(=O)COc4ccccc43)ccc21 in its proper category? Many thanks.
# output class B

# input # bin label for C=CCN1C(=O)[C@@]2(O[C@@H](CCO)[C@H]([Si](C)(C)c3ccc(OC)cc3)[C@H]2C)c2cc(N3CCOC3=O)ccc21
# output class A

# input Please indicate the class for O=C1O[C@H](c2ccccc2)[C@H](c2ccccc2)N2[C@H]1[C@@H](C(=O)N1CCCCCCC1)[C@]1(C(=O)Nc3ccc(C#CC4(O)CCCCCC4)cc31)[C@H]2c1ccc(O)cc1 based on its composite z-score.
# output class C

# input Lab note: sort C=C(/C(=C/C[C@@H](OC(C)=O)c1ccc(CO)o1)c1cc(C(=O)OC)ccc1OC)C(C)C into the matching composite z-score band.
# output class C

# input Assign a category based on measured composite z-score for COc1cc(NN2C(C(O)c3ccccc3)C=CC3C(=O)N(C)C(=O)C32)cc(OC)c1OC (stereo not drawn) and give only the class name.
# output class C

# input Which class does NC(=O)NCC#Cc1ccc2c(c1)[C@]1(C(=O)N2)[C@H](C(=O)N2CCN(c3ncccn3)CC2)[C@H]2C(=O)O[C@H](c3ccccc3)[C@H](c3ccccc3)N2[C@@H]1c1ccc(OCCO)cc1 fall in?
# output class C

# input Which category fits this record: Cc1c(NC(=O)/C(C#N)=C/c2ccccc2Cl)c(=O)n(-c2ccccc2)n1C
# output class B

# input Dear colleague, I would appreciate it if you could identify the bin for O=C1C[C@@](C(=O)NCc2ccccc2)(c2ccc([N+](=O)[O-])cc2)[C@@H](c2ccc(CO)cc2I)N1CC12CC3CC(CC(C3)C1)C2 and reply at your convenience.
# output class A

# input Note: place this compound into its band. Item: C=CCN1C(=O)[C@]2(O[C@H](CCO)[C@@H]([Si](C)(C)c3ccc(OC)cc3)[C@@H]2C)c2cc(NC(=O)c3ccc(OC)cc3)ccc21
# output class A

# input State the band of CCOC(=O)C1=CCN(S(=O)(=O)c2ccc(C)cc2)C1c1ccccc1 (stereo not drawn)
# output class B

# input Band assignment needed for C#C[C@@H](CC)O[Si](C#CCCCC#N)(C(C)C)C(C)C please.
# output class A

# input Looking at CCOC(=O)C[C@H]1[C@H](OC(=O)c2ccc(-c3ccccc3)cc2)[C@@H](NC(=O)Cc2ccc(OC)cc2)c2cc(OCCCO)ccc2N1C(=O)Cc1ccc(OC)cc1 , which class would you pick?
# output class B

# input Lab log: CC(C)OC(=O)CC(=O)CC(O)c1ccc([N+](=O)[O-])cc1 (stereo not drawn) — assign composite z-score category
# output class C

# input Tag the class for CCOC(=O)C1=C[C@@H](C(C)(C)C)N(S(=O)(=O)c2ccc(C)cc2)[C@H]1c1ccc(C)cc1
# output class C

# input Hello team, could you let me know which band the following compound falls into: C=CCC(OC(C)=O)[C@@H]1[C@@H](N(Cc2ccc(-c3ccccc3)cc2)C(=O)c2ccc(C)cc2)c2cc(OCCCO)ccc2N1C(=O)Cc1ccc2ccccc2c1 (stereo partly drawn)
# output class A

---

I'd appreciate it if you could supply composite z-score values for the items below.
Assay: compound binding in COS7 lysate, probe aLAP1, primary screen, cell lysate, small-molecule microarray (AID 1124);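 further: lysate comes from COS7 cells expressing LAP1 and is applied at 0.3 µg/mL; score merges spot fluorescence near 667 nm with signal-to-noise over triplicate slides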
Conditions: probe aLAP1, fluorescence, higher = more signal
API note: the answer field is a bare number with no unit suffix.

# input May I ask what composite z-score has been recorded for CC(=O)N1CC(C(O)C2C=CC3C(=O)NC(=O)C3N2Nc2ccc(Cl)cc2Cl)c2ccccc21 (stereo unspecified) ?
# output -0.0203

# input // composite z-score lookup, key: C=CCOC(=O)[C@H]1[C@@H]2C(=O)O[C@@H](c3ccccc3)[C@@H](c3ccccc3)N2[C@@H](c2ccc(OCCOC(=O)[C@H]3C[C@H]4C(=O)N[C@@H](CCCCNC(C)=O)C(=O)N4[C@H]3c3cccc(OCCO)c3)cc2)[C@]12C(=O)Nc1ccc(I)cc12
# output 0.353

# input Which composite z-score reading was recorded for the molecule O=C(CS)NCCCCCCNC(=O)[C@@H]1C[C@@H]2C(=O)NCC(=O)N2[C@@H]1c1ccc(O)cc1 ?
# output -0.136

# input Can you share its composite z-score? I mean this molecule: CCOC(=O)C1=CCC(c2ccccc2)N(S(=O)(=O)c2ccc([N+](=O)[O-])cc2)C1 (stereo unspecified)
# output 0.173

# input Which value of composite z-score has been reported for COC(=O)[C@@]1(Cc2ccc(F)cc2)[C@H]2c3cc(C(=O)N4CCCC4)n(CC4CC4)c3C[C@H]2CN1C(=O)c1ccccc1 in the records?
# output 0.888

# input Fill blank: measured composite z-score of the molecule COC(=O)C(CC#Cc1ccc2c(c1)[C@]1(C(=O)N2)[C@H](c2ccc(OCCO)cc2)N2[C@H](c3ccccc3)[C@H](c3ccccc3)OC(=O)[C@H]2[C@@H]1C(=O)N1CCN(c2ncccn2)CC1)C(=O)OC is ____.
# output 0.832

---

Test: binders of probe aFGF2 on microarray, primary screen, stem cell growth factor project, biochemical, small-molecule microarray, fluorescence 635/667 (AID 1067);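 further: measures binding of biotinylated aFGF2 protein to printed compounds on slides; z-score merges feature fluorescence and signal-to-noise across triplicate slides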
Details: higher = more signal
I'd be grateful if you could share measured composite z-score for these entries.

# input What composite z-score value was documented for this molecule, CCc1cccc(NC(=O)O[C@H]2[C@H](OC(=O)Nc3ccccc3)[C@H](OC(=O)Nc3ccccc3)[C@@H](OC)O[C@@H]2CO)c1 ?
# output 0.0457

# input Any idea what its composite z-score is? The molecule is COC(=O)[C@@]1(Cc2ccc(F)cc2)[C@H]2c3cc(C(=O)N4CCCC4)n(CC4CC4)c3C[C@H]2CN1C(=O)c1ccccc1
# output 0.0274

# input Any idea what composite z-score was measured for [N-]=[N+]=Nc1ccccc1[C@@H]1OC(c2ccc(OCCCO)cc2)=N[C@]1(Cc1ccccc1)C(=O)NCc1ccccc1 ?
# output 0.0653

# input # lookup: composite z-score of CCN(CC)c1ccc(N2CC=CC34O[C@@H]5C=CCCOC(=O)C5[C@H]3C(=O)N(CCO)[C@@H]4C2=O)cc1 (stereo partly drawn)
# output -0.18

# input For the molecule shown here, CCCNC(=O)[C@@]1(C)c2ccccc2C(=O)N(Cc2ccccc2)[C@H]1c1ccc(CO)cc1 , give the reported composite z-score.
# output 0.12

# input What value of composite z-score has been reported for the following molecule? Cc1c(NC(=O)/C(C#N)=C/c2ccccc2Cl)c(=O)n(-c2ccccc2)n1C
# output -0.009

# input I have this molecule here, COc1ccc(C#Cc2ccc3c(c2)[C@]2(C(=O)N3)[C@H](C(=O)N3CCCCCCC3)[C@H]3C(=O)O[C@H](c4ccccc4)[C@H](c4ccccc4)N3[C@@H]2c2ccc(O)cc2)cc1 , and I need its recorded composite z-score.
# output 0.102

# input Can you look up the measured composite z-score of CC(C)[C@H]1NC(=O)[C@@]23C(=O)N[C@@H](Cc4ccccc4)C2[C@H](C)[C@@]2(C)O[C@H]2C3/C=C/CCC/C=C/CNC(=O)[C@H](Cc2ccccc2)NC1=O (stereo partly drawn) for me?
# output -0.147

# input Report composite z-score for C=C(COC)/C(=C/C[C@H](OC(C)=O)c1cccc(OCCO)c1)c1cnc2ccccc2c1 please.
# output -0.0325

# input Which composite z-score value is on record for CO[C@H]1O[C@H](CO)[C@@H](OC(=O)Nc2ccc(C#N)cc2)[C@@H]2OC(=O)[C@H](Cc3cccc(Br)c3)C/C=C/C[C@@H](Cc3cccc(Br)c3)C(=O)O[C@@H]12 ?
# output -0.0181

# input Value lookup for composite z-score; key = Cc1ccccc1C(O)C1C=CC2C(=O)N(c3ccccc3)C(=O)C2N1Nc1ccc([N+](=O)[O-])cc1 (stereo not drawn)
# output -0.0271

# input Can you look up the measured composite z-score of COC(=O)C(CC#Cc1ccc2c(c1)[C@]1(C(=O)N2)[C@H](c2ccc(OCCO)cc2)N2[C@H](c3ccccc3)[C@H](c3ccccc3)OC(=O)[C@H]2[C@@H]1C(=O)N1CCN(c2ncccn2)CC1)C(=O)OC for me?
# output 0.0275

# input Dear colleague, I am looking for the recorded composite z-score of the following molecule: CCOC(=O)C[C@H]1[C@H](OC(=O)c2ccc(-c3ccccc3)cc2)[C@@H](NC(=O)CC(C)C)c2cc(OCCCO)ccc2N1C(=O)c1ccccc1
# output -0.0236

# input What measured composite z-score goes with C=CCC(OC(C)=O)[C@@H]1[C@@H](N(Cc2ccc(-c3cccc(C(F)(F)F)c3)o2)C(=O)c2ccc(C)cc2)c2cc(OCCCO)ccc2N1C(=O)Cc1ccc(OC)cc1 (stereo partly drawn) ?
# output -0.0639

# input Give its composite z-score value. Item: CC(C)c1ccc(NN2C(C(O)Cc3ccccc3)C=CC3C(=O)N(c4ccccc4)C(=O)C32)cc1 (stereo not drawn)
# output 0.0116

# input Quick one: composite z-score of CCOC(=O)C1=CC[C@@H](c2ccccc2)N(S(=O)(=O)c2ccc(C)cc2)[C@H]1c1cccc(OC)c1 ?
# output 0.0182

# input What composite z-score value was documented for this molecule, [N-]=[N+]=NC[C@H](Cc1ccccc1)NC(=O)c1ccccc1 ?
# output -0.107

# input State the recorded composite z-score for this entry: COCCOC(=O)N1C(=O)[C@@]2(c3cc(C#Cc4ccc(OC)cc4)ccc31)[C@H](C(=O)NC[C@H](O)c1ccccc1)[C@H]1C(=O)O[C@H](c3ccccc3)[C@H](c3ccccc3)N1[C@@H]2c1ccc(OCCO)cc1
# output -0.12

# input molecule: COc1ccc(C(O)C2C=CC3C(=O)N(c4ccccc4)C(=O)C3N2Nc2ccccc2F)cc1 (stereo not drawn) ; wanted: its composite z-score
# output -0.0747

# input # get_value(readout='composite z-score', item= COc1ccc(NC(=O)O[C@H]2[C@@H]3OC(=O)[C@H](Cc4cccc(Br)c4)C/C=C/C[C@@H](Cc4cccc(Br)c4)C(=O)O[C@H]3[C@@H](OC)O[C@@H]2CO)cc1 )
# output 0.0929

# input Reported composite z-score, molecule CC(C)[Si]1(C(C)C)OCc2cc(-c3ccc(-c4ccc(Cl)c(Cl)c4)o3)nc(CCc3ccccc3)c21 : ____
# output -0.0332

# input What measured composite z-score goes with CCOC(=O)C[C@H]1[C@H](OC(=O)c2cc3ccccc3oc2=O)[C@@H](NC(=O)c2ccc3ccccc3c2)c2cc(OCCCO)ccc2N1C(=O)Cc1ccc(OC)cc1 ?
# output -0.196

# input Give its composite z-score value. Item: CS(=O)(=O)CCOC(=O)C1=CC(CCCO)=CC(C2CC2)N(Cc2cccc(OC(F)(F)F)c2)C=C1C(=O)OCCS(C)(=O)=O (stereo not drawn)
# output -0.0734

# input Quick one: composite z-score for CCCCCN1CC=CC23O[C@@H]4C=CCOC(=O)[C@@H]4[C@H]2C(=O)N(CCO)[C@@H]3C1=O (stereo partly drawn) ?
# output -0.177

# input Entry under review: CN1C(=O)C2C(C1=O)C1C=C(CCCO)C2C(C2CC2)N1Cc1cc2c(cc1Br)OCO2 (stereo not drawn) . Reported composite z-score?
# output -0.141

# input Which measured composite z-score value corresponds to CCCNC(=O)[C@@]1(Sc2ccc(C)cc2)CC(=O)N(C2CCCCC2)[C@@H]1c1ccc(CO)cc1I ?
# output -0.0788

# input Record request: composite z-score value, item CC(C)C[C@@H]1NC(=O)[C@H]2C[C@@H](C(=O)NCCCCCN)[C@@H](c3cccc(OCCO)c3)N2C1=O
# output -0.107

# input What measured composite z-score goes with C=C[C@@H](C)[C@@H](OC(=O)Nc1ccc(SC)cc1)c1ccc(OCCO)cc1 ?
# output 0.0918
